Provenance of the data: patent US8178506B2

Tested on: HeLa cells
Experiment: Cell cycle assay in HeLa cells
Assay type: cell-based, human
Details: HeLa cells, 150 nM oligomeric compound, 24 hours, relative to untreated control (UTC = 100)
In the oligonucleotide strings, read from the 5' end, every base follows the letter of its sugar. An asterisk marks phosphorothioate; unmarked linkages are phosphodiester. Other units and linkages are bracketed, terminal groups are in braces. A string of capitals states the bases alone. e = 2'-O-(2-methoxyethyl) (MOE); [5mC] = 5-methylcytosine; d = 2'-deoxy (DNA)
recordedEndpoint: % cells in cell cycle phase G1 (%)
Only the number, expressed in %, is required.

A selection of reference data follows.
{"substance": "327877 (antisense e[5mC]*eG*e[5mC]*e[5mC]*eA*eA*eT*eA*eT*eT*eT*eA*e[5mC]*eG*eT*eG*e[5mC]*eT*eG*e[5mC]*eT*eA) [compound 327877]", "% cells in cell cycle phase G1, %": 107}
{"substance": "338809 (antisense CTGCTCCAGAGCCCGAGTCG; all 2'-MOE, all phosphorothioate, methylation of C not given here) [compound 338809]", "% cells in cell cycle phase G1, %": 159}
{"substance": "345373 (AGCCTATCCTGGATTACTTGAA; sugars from the 5' end e5 d10 e7, all phosphorothioate, methylation of C not given here) [compound 345373]", "% cells in cell cycle phase G1, %": 66}
{"substance": "328388 (eT*e[5mC]*e[5mC]*e[5mC]*eA*dT*dA*dG*d[5mC]*dA*dG*dG*dG*d[5mC]*dA*eG*eA*eG*e[5mC]*e[5mC]; antisense) [compound 328388]", "% cells in cell cycle phase G1, %": 110}
{"substance": "328339 (eG*e[5mC]*eA*eG*e[5mC]*dG*d[5mC]*dA*dG*d[5mC]*dT*dG*dG*dT*d[5mC]*eT*e[5mC]*e[5mC]*e[5mC]*e[5mC]) [compound 328339]", "% cells in cell cycle phase G1, %": 77}

Short answer for 340365 (antisense TACTTTATATAGAACACAAG; sugars from the 5' end e5 d10 e5, all phosphorothioate, methylation of C not given here) [compound 340365] : % cells in cell cycle phase G1 was 125

Quick note, % cells in cell cycle phase G1 for 338797 (antisense CTGGGGAGGGGGTTAGCGTC; all 2'-MOE, all phosphorothioate, methylation of C not given here) [compound 338797] landed at 101

// % cells in cell cycle phase G1 lookup, substance = 328749 (antisense e[5mC]*eA*eG*e[5mC]*e[5mC]*dT*dG*d[5mC]*d[5mC]*dA*d[5mC]*d[5mC]*dG*d[5mC]*d[5mC]*eG*e[5mC]*eT*eT*eT) [compound 328749] , result: 126

Measured % cells in cell cycle phase G1, 328119 (antisense eA*eA*eT*eA*eA*e[5mC]*eA*e[5mC]*eA*e[5mC]*eA*eT*e[5mC]*e[5mC]*eA*e[5mC]*eT*eT*eT*eA*eA) [compound 328119] : 100

Kindly note the recorded % cells in cell cycle phase G1 for 328674 (eT*eG*e[5mC]*e[5mC]*e[5mC]*dT*dG*d[5mC]*dT*d[5mC]*dA*dG*dA*dG*d[5mC]*e[5mC]*e[5mC]*eT*eA*eG; antisense) [compound 328674] , which is 125

get_value(item= 327919 (antisense eG*eA*eA*eA*e[5mC]*e[5mC]*e[5mC]*eA*eG*e[5mC]*eA*eG*eA*e[5mC]*eA*eA*eT*eG*eT*eA*eG*e[5mC]*eT) [compound 327919] , readout=% cells in cell cycle phase G1) returns 92

Documented % cells in cell cycle phase G1 of 328397 (antisense eT*eT*eG*eA*eT*d[5mC]*d[5mC]*dA*dT*dA*dT*dG*d[5mC]*dA*dA*e[5mC]*eA*eA*eG*eG) [compound 328397] : 93

Quick note, % cells in cell cycle phase G1 for 338741 (antisense GCTTCACAATTAGACCATCC; all 2'-MOE, all phosphorothioate, methylation of C not given here) [compound 338741] landed at 141

The reported value for 328362 (eT*eG*eT*eG*eT*dT*dT*dT*d[5mC]*dT*dG*dA*d[5mC]*dT*d[5mC]*eA*eG*eT*e[5mC]*eA) [compound 328362] in terms of % cells in cell cycle phase G1 is 101

Reported % cells in cell cycle phase G1 ( 345395 (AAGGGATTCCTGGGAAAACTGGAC; sugars from the 5' end e5 d10 e9, all phosphorothioate, methylation of C not given here) [compound 345395] ) = 54

Reported % cells in cell cycle phase G1 of 327911 (antisense eG*e[5mC]*eT*eA*e[5mC]*e[5mC]*eT*eG*e[5mC]*eA*e[5mC]*eT*eG*eT*eA*eA*eG*e[5mC]*eA*e[5mC]*eT*eT*eT*eT) [compound 327911] : 130

The reported value for 327896 (antisense eA*e[5mC]*eA*eG*eT*eT*e[5mC]*eT*eT*e[5mC]*eA*eA*e[5mC]*eT*eG*eG*e[5mC]*eA*eG*e[5mC]*eT*eT) [compound 327896] in terms of % cells in cell cycle phase G1 is 83

The recorded % cells in cell cycle phase G1 for 338690 (antisense TAGACAAAAACAGACTCTGA; all 2'-MOE, all phosphorothioate, methylation of C not given here) [compound 338690] is 124

Lookup result for 338666 (antisense TCACGTGGAGAGGAGTTAAA; all 2'-MOE, all phosphorothioate, methylation of C not given here) [compound 338666] ; measured % cells in cell cycle phase G1: 123

Data point: 338678 (antisense CTGGTTGGGTATGAGACAGA; all 2'-MOE, all phosphorothioate, methylation of C not given here) [compound 338678] ; % cells in cell cycle phase G1 = 122

====

Test system: HeLa cells
Assay: Cell cycle assay in HeLa cells
Assay type: cell-based, human
Details: HeLa cells, 150 nM oligomeric compound, 24 hours, relative to untreated control (UTC = 100)
In the oligonucleotide strings, read from the 5' end, every base follows the letter of its sugar. An asterisk marks phosphorothioate; unmarked linkages are phosphodiester. Other units and linkages are bracketed, terminal groups are in braces. A string of capitals states the bases alone. e = 2'-O-(2-methoxyethyl) (MOE); [5mC] = 5-methylcytosine; d = 2'-deoxy (DNA)
recordedEndpoint: % cells in cell cycle phase G2/M (%)
Report as a plain number; the unit % is understood.

Here's what some known entries look like.
{"substance": "328676 (eA*e[5mC]*e[5mC]*eT*e[5mC]*d[5mC]*d[5mC]*dA*dG*d[5mC]*d[5mC]*dA*dA*dT*d[5mC]*e[5mC]*eA*eT*eG*eT; antisense) [compound 328676]", "% cells in cell cycle phase G2/M / %": 134}
{"substance": "327919 (antisense eG*eA*eA*eA*e[5mC]*e[5mC]*e[5mC]*eA*eG*e[5mC]*eA*eG*eA*e[5mC]*eA*eA*eT*eG*eT*eA*eG*e[5mC]*eT) [compound 327919]", "% cells in cell cycle phase G2/M / %": 109}
{"substance": "328362 (eT*eG*eT*eG*eT*dT*dT*dT*d[5mC]*dT*dG*dA*d[5mC]*dT*d[5mC]*eA*eG*eT*e[5mC]*eA) [compound 328362]", "% cells in cell cycle phase G2/M / %": 126}
{"substance": "328339 (eG*e[5mC]*eA*eG*e[5mC]*dG*d[5mC]*dA*dG*d[5mC]*dT*dG*dG*dT*d[5mC]*eT*e[5mC]*e[5mC]*e[5mC]*e[5mC]) [compound 328339]", "% cells in cell cycle phase G2/M / %": 143}

Continue with the substance presented below.
Please fill in: % cells in cell cycle phase G2/M reported for 328727 (antisense e[5mC]*eT*eG*e[5mC]*eT*d[5mC]*d[5mC]*dA*dG*dA*dG*d[5mC]*d[5mC]*d[5mC]*dG*eA*eG*eT*e[5mC]*eG) [compound 328727] = 105

====

System: preadipocytes
Experiment: Caspase assay in preadipocytes
Assay type: cell-based, human
Conditions: untreated control set equal to 1.0
Description: The effect of oligomeric compounds of the present invention targeting miRNAs was examined in preadipocytes (Zen-Bio, Inc., Research Triangle Park, N.C.) using the fluorometric caspase assay previously described in Example 11.
In the oligonucleotide strings, read from the 5' end, every base follows the letter of its sugar. An asterisk marks phosphorothioate; unmarked linkages are phosphodiester. Other units and linkages are bracketed, terminal groups are in braces. A string of capitals states the bases alone. e = 2'-O-(2-methoxyethyl) (MOE); [5mC] = 5-methylcytosine
recordedEndpoint: Fold Increase over UTC (caspase activity) (fold over UTC)
Answer with a number only, understood to be in fold over UTC.

Worked examples, 3 substances total:
{"substance": "327905 (antisense e[5mC]*eA*eG*eA*e[5mC]*eT*e[5mC]*e[5mC]*eG*eG*eT*eG*eG*eA*eA*eT*eG*eA*eA*eG*eG*eA) [compound 327905]", "testResult": 1.5}
{"substance": "327930 (antisense eA*e[5mC]*eT*eA*eT*eA*e[5mC]*eA*eA*e[5mC]*e[5mC]*eT*e[5mC]*e[5mC]*eT*eA*e[5mC]*e[5mC]*eT*e[5mC]*eA) [compound 327930]", "testResult": 1.4}
{"substance": "327889 (antisense eG*eT*eG*eG*eT*eA*eA*eT*e[5mC]*e[5mC]*e[5mC]*eT*eG*eG*e[5mC]*eA*eA*eT*eG*eT*eG*eA*eT) [compound 327889]", "testResult": 1.1}

For this substance ( 327903 (antisense eA*eA*e[5mC]*eT*eA*eT*eA*e[5mC]*eA*eA*e[5mC]*e[5mC]*eT*eA*e[5mC]*eT*eA*e[5mC]*e[5mC]*eT*e[5mC]*eA) [compound 327903] ), measured Fold Increase over UTC (caspase activity) is 1.6

Form: substance = NNNNNNNNNNNNNNNNNNNN [ISIS 29848, reference compound] ; Fold Increase over UTC (caspase activity) = 1.2

Fold Increase over UTC (caspase activity) reading for 327938 (antisense eA*eA*e[5mC]*eA*eA*eT*eA*e[5mC]*eA*eA*e[5mC]*eT*eT*eA*e[5mC]*eT*eA*e[5mC]*e[5mC]*eT*e[5mC]*eA) [compound 327938] : 1.0
